Source listed as patent US10023864B2.

Tested on: human Hsp90AB1 protein
Assay: Knockdown of Hsp90AB1 protein in HSMM by Western blotting
Type: cell-based
Conditions: Western blot, normalized to actin, vs NC1
d = 2'-deoxy (DNA); m = 2'-O-methyl
measured_parameter: level of HSP90ab1 protein

substance: mC*mU*mU*mC*mC*mU*T*G*A*C*C*C*T*C*C*T*C*T*mC*mC*mU*mC*mC*mA (antisense CUUCCUTGACCCTCCTCTCCUCCA; sugars from the 5' end m6 d12 m6, all phosphorothioate, methylation of C not given here) [ASO4, modified antisense oligonucleotide derived from the mouse HSP90AB1 gene]
subject_of_test: human Hsp90AB1 protein
obs_value: effective
//
substance: mA*mU*mC*mU*mC*mC*T*T*C*T*C*C*C*G*T*T*C*C*mU*mU*mC*mU*mC*mC (antisense AUCUCCTTCTCCCGTTCCUUCUCC; sugars from the 5' end m6 d12 m6, all phosphorothioate, methylation of C not given here) [ASO2, modified antisense oligonucleotide derived from the mouse HSP90AB1 gene]
subject_of_test: human Hsp90AB1 protein
obs_value: effective
//
substance: mA*mC*mU*mU*mC*mC*T*T*G*A*C*C*C*T*C*C*T*C*mU*mC*mC*mU*mC*mC (antisense ACUUCCTTGACCCTCCTCUCCUCC; sugars from the 5' end m6 d12 m6, all phosphorothioate, methylation of C not given here) [ASO3, modified antisense oligonucleotide derived from the mouse HSP90AB1 gene]
subject_of_test: human Hsp90AB1 protein
obs_value: effective
//
substance: mU*mC*mU*mC*mC*mU*T*C*T*C*C*C*G*T*T*C*C*T*mU*mC*mU*mC*mC*mA (antisense UCUCCUTCTCCCGTTCCTUCUCCA; sugars from the 5' end m6 d12 m6, all phosphorothioate, methylation of C not given here) [ASO1, modified antisense oligonucleotide derived from the mouse HSP90AB1 gene]
subject_of_test: human Hsp90AB1 protein
obs_value: effective
